Test system: MOLT-4
assay comment: NCI tumour cell line growth inhibition, 48 h
Calls of active or inactive are those of the source. Cut-off read from the data, not from the text of the source: active = GI50 up to about 1.1 µM and inactive = higher.
Tick one outcome: t = active, f = inactive

(Q) Identify the outcome logged in this assay for the molecule shown: O=S1(=O)OCCOS(=O)(=O)C1(Br)Cc1ccccc1
(A) f

(Q) Identify the outcome logged in this assay for the molecule shown: CCN(CC)c1c(C(=O)/C=C/c2ccc(OC)cc2)c(-c2ccccc2)nn(C)c1=O
(A) f

(Q) Identify the outcome logged in this assay for the molecule shown: O=S1(=O)NN=C(NCc2ccc(Cl)c(Cl)c2)c2ccccc21
(A) f

(Q) Identify the outcome logged in this assay for the molecule shown: CC1CCOc2ccc(cc2)/C=N\c2ccc(cc2)CCc2ccc(cc2)/N=C\c2ccc(cc2)OCC1
(A) f

(Q) Identify the outcome logged in this assay for the molecule shown: N#Cc1c(-c2ccc(Cl)cc2)c2c(n(C3OC(CO)C(O)C(O)C3O)c1=S)CCC2 (centres undefined)
(A) f

(Q) Identify the outcome logged in this assay for the molecule shown: c1cc2ccc1C1NCCCN1CCN1CCCNC1c1ccc(cc1)C1NCCCN1CCN1CCCNC21 (centres undefined)
(A) f

(Q) Identify the outcome logged in this assay for the molecule shown: CN(/N=C(\C(=O)O)c1ccccc1)C1=NCCCN1
(A) f

(Q) Identify the outcome logged in this assay for the molecule shown: CC(NC(=O)c1ccc(OP(=O)(OCc2ccc([N+](=O)[O-])o2)N(C)CCCCCl)cc1)c1ccc(OCC2CCCCC2)c(C(N)=O)c1 (centres undefined)
(A) f

(Q) Identify the outcome logged in this assay for the molecule shown: CN(C)c1ccc(/C=c2/c3ccccc3n3c2cc(C24CC5CC(CC(C5)C2)C4)[n+]3C)cc1
(A) t

----------
Tested on: Hs-578T
assay comment: NCI tumour cell line growth inhibition, 48 h
The source made the active and inactive calls. Cut-off read from the data, not from the text of the source: active = GI50 up to about 1.1 µM and inactive = higher.
Tick one outcome: active, inactive

# example entries with known answers
(Q) Identify the outcome logged in this assay for the compound shown: NS(=O)(=O)c1nnc(NC(=O)c2cccc([N+](=O)[O-])c2)s1
(A) inactive

(Q) Identify the outcome logged in this assay for the compound shown: CCCn1c(=O)c2nn3c(=O)n(CCC)c(=O)c3nn2c1=O
(A) inactive

(Q) Identify the outcome logged in this assay for the compound shown: CC(=O)O[C@H]1CC[C@@]2(C)C(=CC[C@H]3[C@@H]4CC[C@H](c5cc(C(F)(F)F)n(C(C)=O)n5)[C@@]4(C)CC[C@@H]32)C1
(A) inactive

(Q) Identify the outcome logged in this assay for the compound shown: Cc1ccnc2nc(-c3ccc4ccccc4c3)cc(O)c12
(A) inactive

(Q) Identify the outcome logged in this assay for the compound shown: CCN1C(=O)C(=C/C=C/C=C2/N(C)c3ccccc3C2(C)C)C(=O)N(CC)C1=S
(A) inactive

(Q) Identify the outcome logged in this assay for the compound shown: CC(C)OCC(O)COc1cc(=O)oc2ccccc12 (centres undefined)
(A) inactive

(Q) Identify the outcome logged in this assay for the compound shown: N#Cc1c(-c2ccc(Cl)cc2)c2c(n(C3OC(CO)C(O)C(O)C3O)c1=S)CCC2 (centres undefined)
(A) inactive

(Q) Identify the outcome logged in this assay for the compound shown: COc1cccc2c1C(=O)c1c(O)c3c(c(O)c1C2=O)C[C@@](O)(C(=O)CO)C[C@@H]3OC1CC(N2CCOCC2C#N)C(O)C(C)O1 (some centres undefined)
(A) active

(Q) Identify the outcome logged in this assay for the compound shown: O=C(O)CN1CCN2CCCCCCCCN(CC1)CCN(CC(=O)O)CC2
(A) inactive

(Q) Identify the outcome logged in this assay for the compound shown: c1ccc(CCCCNCc2cc(CNCCCCc3ccccc3)cc(CNCCCCc3ccccc3)c2)cc1
(A) inactive

Continuing:
(Q) Identify the outcome logged in this assay for the compound shown: COC1(O)C(=O)c2ccccc2OC1(OC)c1ccccc1 (centres undefined)
(A) inactive

(Q) Identify the outcome logged in this assay for the compound shown: COC(=O)[C@@H]1[C@H](O)[C@H](C)[C@H](O)[C@H](C)/C=C\C=C(\C)C(=O)Nc2c(C)c(OC(C)=O)c3c(c2O)C(=O)C(C)=C2OCOC(=C23)/C(C)=C/[C@@H](O)[C@H](O)[C@@H](C)[C@H]1OC(C)=O
(A) inactive

(Q) Identify the outcome logged in this assay for the compound shown: Clc1ccc(COc2ccccc2/C=N/c2c(-c3ccco3)nc3ccccn23)c(Cl)c1
(A) inactive

(Q) Identify the outcome logged in this assay for the compound shown: CN(C)NC1=NS(=O)(=O)c2cc3c(=O)n(C)[nH]c3cc2S1
(A) inactive

(Q) Identify the outcome logged in this assay for the compound shown: O=C(NNC(=O)c1ccccc1O)c1cccs1
(A) inactive

(Q) Identify the outcome logged in this assay for the compound shown: Cc1cnc2[nH]c(-c3ccccc3)cc(=O)c2c1
(A) active

(Q) Identify the outcome logged in this assay for the compound shown: Cc1cc(C)n(CN(CCCCO)Cn2nc(C)cc2C)n1
(A) inactive

(Q) Identify the outcome logged in this assay for the compound shown: COc1ccc(/N=C\c2ccc(N(CCC#N)CCC#N)cc2)cc1
(A) inactive

(Q) Identify the outcome logged in this assay for the compound shown: Nc1ccc(S2(c3ccc(N)cc3)C=C(c3ccccc3)C(c3ccccc3)=C2)cc1
(A) inactive

----------
Test system: SK-OV-3
assay comment: NCI tumour cell line growth inhibition, 48 h
Active and inactive are the calls of the source. No stated cut-off is given here; in the data, active = GI50 up to about 1.1 µM and inactive = higher.
measured quantity: GI50

Worked examples follow.
(Q) Need GI50 of COc1ccc(C(O)c2nccn2C)c(OC)c1 (stereo unspecified) , thanks.
(A) 17.4 µM (inactive)

(Q) Need GI50 of COc1cc(C(=O)C(CO)Oc2ccccc2OC)ccc1O (stereo unspecified) , thanks.
(A) > 100 µM (inactive)

(Q) Need GI50 of O=C1C2CC=CCC2C(=O)N1n1c(Cc2ccccc2)n[nH]c1=O (stereo unspecified) , thanks.
(A) > 100 µM (inactive)

Continuing:
(Q) Need GI50 of CSC1=N/C(=C\c2ccccc2)C(=O)N1CN1CCCCC1 , thanks.
(A) > 100 µM (inactive)

(Q) Need GI50 of C[C@H]1O[C@@H](C(C)(C)C)OC(=O)[C@@H]1C(OC(=O)c1ccccc1)c1cccc2ccccc12 (stereo partly specified) , thanks.
(A) > 100 µM (inactive)

(Q) Need GI50 of CC(C)(C)c1cc(C2NCCO2)cc(C(C)(C)C)c1O (stereo unspecified) , thanks.
(A) 32.1 µM (inactive)

----------
Test system: HL-60
assay comment: NCI tumour cell line growth inhibition, 48 h
The source made the active and inactive calls. No stated cut-off is given here; in the data, active = GI50 up to about 1.1 µM and inactive = higher.
Tick one outcome: label 1 (active), label 0 (inactive)

# example entries with known answers
(Q) Identify the outcome logged in this assay for the compound shown: CC(C)CCC[C@@H](C)[C@H]1CCC2C3CC=C4C[C@@H](Oc5c6ccccc6nc6ccccc56)CCC4C3CCC21 (stereo not given in full)
(A) label 0

(Q) Identify the outcome logged in this assay for the compound shown: CSc1ncc2c(C#N)c3ccccn3c(=O)c2n1
(A) label 0

(Q) Identify the outcome logged in this assay for the compound shown: COc1ccc(N)c(C(=O)CCNC(C)=O)c1 [KINURENAMINE]
(A) label 0

(Q) Identify the outcome logged in this assay for the compound shown: O=C(NNC(=O)c1ccccc1O)c1cccs1
(A) label 0

(Q) Identify the outcome logged in this assay for the compound shown: O=C(CC(=O)N1N=C(n2ccc3ccccc32)CC1c1ccccc1)Nc1ccccc1Cl (stereo not given)
(A) label 0

(Q) Identify the outcome logged in this assay for the compound shown: CC1(C)CC2(C)CC1CC2NC(=O)CCN1CCOCC1 (stereo not given)
(A) label 0

(Q) Identify the outcome logged in this assay for the compound shown: CCC1C(C)c2c([nH]c3ccccc23)C2C(=O)N(c3ccccc3)C(=O)C21 (stereo not given)
(A) label 0

(Q) Identify the outcome logged in this assay for the compound shown: CCCCCCC(=O)OC[n+]1ccc2c(C)c3[nH]c4ccc(OC)cc4c3c(C)c2c1
(A) label 1

Continuing:
(Q) Identify the outcome logged in this assay for the compound shown: c1ccc2c(c1)c1ccccc1n2Cn1c2ccccc2c2ccccc21
(A) label 0

(Q) Identify the outcome logged in this assay for the compound shown: Cc1ccc(-c2cc(N)n(-c3nc4c([nH]3)c(=O)n(C)c(=O)n4C)n2)cc1
(A) label 0

----------
System: EKVX
assay comment: NCI tumour cell line growth inhibition, 48 h
Active and inactive are the calls of the source. Rule as the data show it: active = GI50 up to about 1.1 µM and inactive = higher.
GI50 values by entry

Worked examples follow.
(Q) Need GI50 of CC(=O)Nc1ccc(C2CC(c3ccc([N+](=O)[O-])cc3)=Nc3ccccc3[S+]2[O-])cc1 (stereo not given) , thanks.
(A) 36.5 µM (inactive)

(Q) Need GI50 of Cc1c2cc[n+]([O-])cc2c(C)c2c1[nH]c1ccccc12 , thanks.
(A) 11.4 µM (inactive)

(Q) Need GI50 of Cc1nnc2n1N=C(c1ccccc1)/C(=C/c1ccc(-c3ccc(Cl)cc3)o1)S2 , thanks.
(A) 20 µM (inactive)

(Q) Need GI50 of CC1=NN(C(=O)c2ccccc2)C(=O)C1/N=N/c1ccccc1C(=O)O (stereo not given) , thanks.
(A) > 100 µM (inactive)

(Q) Need GI50 of O=C(c1cc2c(c3ccccc13)NC1(CCCCC1)N=C2C(F)(F)F)C(F)(F)F , thanks.
(A) 4.82 µM (inactive)

Continuing:
(Q) Need GI50 of COCO[C@@H]1C[C@H]2C(=O)Nc3ccccc3C(=O)N2C1 , thanks.
(A) > 100 µM (inactive)

(Q) Need GI50 of COc1ccc(CCN2CCOCC2)cc1 , thanks.
(A) > 100 µM (inactive)

(Q) Need GI50 of Nc1ccc2c(c1)nc1n2C(c2c(F)cccc2F)SC1 (stereo not given) , thanks.
(A) > 100 µM (inactive)

(Q) Need GI50 of OCC1OC(n2cnc3c2NC=NC[C@H]3O)CC1O (stereo not given in full) , thanks.
(A) 489 µM (inactive)

(Q) Need GI50 of COC(=O)C1=C(c2cc(OC)c(OC)c(OC)c2)OC(c2cc(OC)c(OC)c(OC)c2)C1COC(C)=O (stereo not given) , thanks.
(A) > 100 µM (inactive)
